Here, each record is paired with measured CC50 at 72 h data.
- PROTOCOL: Cytotoxicity assay
- Type: cell-based
- PROTOCOL CONDITIONS: human, TZM-GFP cells

See these solved cases before continuing.
1) Cc1cn(CC(=O)N[C@@H](Cc2ccccc2)C(=O)N(C)c2ccc(Cl)cc2)c(=O)[nH]c1=O	> 50 µM
2) CN(C(=O)[C@H](Cc1ccccc1)NC(=O)CNC(=O)c1ccccc1)c1ccc(F)cc1	> 50 µM

Short answer for Cc1cn(CC(=O)N[C@@H](C(=O)N(C)c2ccccc2)c2ccccc2)c(=O)[nH]c1=O : CC50 at 72 h was > 50 µM

---

- System: HIV-1NL4-3
- PROTOCOL: Anti-HIV-1 assay in TZM-GFP cells
- Assay type: cell-based
- PROTOCOL CONDITIONS: Human immunodeficiency virus 1, read-out: Inhibition at 2 μmol/L
Here, each record is paired with measured inhibition at 2 µM data.
The answer is to be given in %; state only the numeric part.

1. CN(C(=O)[C@H](Cc1ccccc1)NC(=O)CC1NC(=O)NC1=O)c1ccc(Cl)cc1 (stereo partly drawn)	17
2. CN(C(=O)[C@H](Cc1ccccc1)NC(=O)CNC(=O)c1ccccc1)c1cccc(Cl)c1	40
3. Cc1cn(CC(=O)N[C@@H](Cc2ccccc2)C(=O)N(C)c2cccc(F)c2)c(=O)[nH]c1=O	0
4. CN(C(=O)[C@H](Cc1ccccc1)NC(=O)CNC(=O)c1ccccc1)c1ccccc1	15
5. Cc1cn(CC(=O)N[C@@H](Cc2ccccc2)C(=O)N(C)c2cccc(C(F)(F)F)c2)c(=O)[nH]c1=O	28

Short answer for Cc1cn(CC(=O)N[C@@H](Cc2ccccc2)C(=O)N(C)c2cccc(Br)c2)c(=O)[nH]c1=O : inhibition at 2 µM was 22

Short answer for Cc1cn(CC(=O)N[C@@H](Cc2ccccc2)C(=O)N(C)c2ccccc2)c(=O)[nH]c1=O : inhibition at 2 µM was 35

Short answer for CN(C(=O)[C@H](Cc1ccccc1)NC(=O)CNC(=O)c1ccccc1)c1cccc(F)c1 : inhibition at 2 µM was 3

Short answer for CN(C(=O)[C@H](Cc1ccccc1)NC(=O)CNC(=O)c1ccccc1)c1cccc(C(F)(F)F)c1 : inhibition at 2 µM was 19

Short answer for Cc1ccc(N(C)C(=O)[C@H](Cc2ccccc2)NC(=O)Cn2cc(C)c(=O)[nH]c2=O)cc1 : inhibition at 2 µM was 7

Short answer for Cc1cn(CC(=O)N[C@@H](Cc2ccccc2)C(=O)N(C)c2ccc(F)cc2)c(=O)[nH]c1=O : inhibition at 2 µM was 6

---

Here, each record is paired with measured half-life at 1 μmol/L data.
- PROTOCOL: Microsomal stability assay, human liver microsomes
- Type: in vitro ADME
- PROTOCOL CONDITIONS: human, pH 7.4
The answer is to be given in min; state only the numeric part.

See these solved cases before continuing.
1) CN(C(=O)[C@H](Cc1ccccc1)NC(=O)CNC(=O)c1ccccc1)c1ccc(Cl)cc1	36
2) Cc1ccc(N(C)C(=O)[C@H](Cc2ccccc2)NC(=O)CNC(=O)c2ccccc2)cc1	22
3) Cc1cn(CC(=O)N[C@@H](Cc2ccccc2)C(=O)N(C)c2ccc(Cl)cc2)c(=O)[nH]c1=O	12
4) CN(C(=O)[C@H](Cc1ccccc1)NC(=O)CNC(=O)c1ccccc1)c1ccccc1	15
5) CCN(C(=O)[C@H](Cc1ccccc1)NC(=O)CNC(=O)c1ccccc1)c1ccccc1	14

Okay, now this molecule:
Short answer for CN(C(=O)[C@H](Cc1ccccc1)NC(=O)CNC(=O)c1ccccc1)c1cccc(F)c1 : half-life at 1 μmol/L was 12
